Test system: HepG2-TP53BP1-CLTA
Assay: lowest phenotypically active concentration; higher = less potent
Settings: treatment time: 24 h
quantity: lowest phenotypically active concentration (µM)
One number for each entry, in µM.

CNC(=O)c1cc(Oc2ccc(NC(=O)Nc3ccc(Cl)c(C(F)(F)F)c3)cc2)ccn1 [sorafenib] = 9
COc1cc(OC2CCN(C)CC2)ccc1Nc1ncc2c(n1)n(C1CCCC1)c(=O)n2C = 9
COc1cc2ncnc(Nc3ccc(O)c(Br)c3)c2cc1OC = 3

For each of the compounds below, state lowest phenotypically active concentration.
1. O=C(Nc1ccncc1)c1cc([N+](=O)[O-])ccc1Cl
2. COc1ccc(CCc2nc3cc(-c4c(C)noc4C)ccc3n2C[C@H](C)N2CCOCC2)cc1Cl
3. O=C1c2ccccc2-c2nc3nonc3nc21
4. CC(C)N(CCCNC(=O)Nc1ccc(C(C)(C)C)cc1)C[C@H]1O[C@@H](n2cc(Br)c3c(N)ncnc32)[C@H](O)[C@@H]1O
5. O=C1N=C(NCc2cccs2)S/C1=C\c1ccc2ncccc2c1
6. O=c1cc(N2CCOCC2)oc2c(-c3cccc4c3sc3ccccc34)cccc12
7. COc1cc2c(N3CCN(C(=O)Nc4ccc(OC(C)C)cc4)CC3)ncnc2cc1OCCCN1CCCCC1 [tandutinib]

9
9
3
1
3
1
9

Requested field: lowest phenotypically active concentration. Item: Cc1ccc(NC(=O)c2ccc(CN3CCN(C)CC3)cc2)cc1Nc1nc(-c2cccnc2)cs1 [masitinib]
3

====

Tested on: WPMY1-GM130-SQSTM1
Experiment: phenotypically active (imaging signature differs from DMSO and reproducible) at any of 0.3-9 uM (binary (1 = active, 0 = inactive)); higher = active
Details: treatment time: 24 h
Pick one: true for active, false for inactive

O=c1cc(N2CCOCC2)oc2c(-c3cccc4c3sc3ccccc34)cccc12 = true
Cc1nc(NC(=O)N2CCC[C@H]2C(N)=O)sc1-c1ccnc(C(C)(C)C(F)(F)F)c1 = true
Fc1ccc(-c2c3cccc(C(F)(F)F)c3nn2Cc2ccc(F)cc2Cl)cc1 = false
CN1CC[C@]23c4ccccc4N[C@H]1[C@]21CCN(C)[C@H]3Nc2ccccc21 = false
COCC(=O)O[C@]1(CCN(C)CCCc2nc3ccccc3[nH]2)CCc2cc(F)ccc2[C@@H]1C(C)C = true
Cc1c(O)cccc1C(=O)N[C@@H](CSc1ccccc1)[C@H](O)CN1C[C@H]2CCCC[C@H]2C[C@H]1C(=O)NC(C)(C)C = true

Recorded test outcome, item O=C(O)c1ccc(N2N=C(Cc3ccccc3)/C(=C/c3ccc(-c4ccccc4F)o3)C2=O)cc1
false

# iterate: CCCC(=O)O[C@]1(C(=O)COC(C)=O)CC[C@H]2[C@@H]3C[C@H](F)C4=CC(=O)C=C[C@]4(C)[C@@]3(F)[C@@H](O)C[C@@]21C [difluprednate]
false

Okay, and CC[N+](C)(CC)CCOC(=O)C1c2ccccc2Oc2ccccc21 ?
false

Input Cc1noc(C)c1-c1cc(O)cc(C(O)c2ccccc2)c1 (configuration not stated)
true

Please give the result for O=C(Nc1c(Cl)cncc1Cl)c1ccc(OC(F)F)c(OCC2CC2)c1 too.
false

Queued: Cc1noc(C)c1-c1ccc2c(c1)nc(CCc1ccc(OCCCN(C)C)cc1)n2CCN1CCOCC1
true

What do you get for COC(=O)/C=C/c1cccc(N(Cc2ccc(-c3ccc(N(C)C)cc3)cc2)C(=O)C2CCCCC2)c1 ?
false

Now this one: Nc1nc(S)c2[nH]cnc2n1
true

// query: O=P(O)(O)C(O)(Cc1cccnc1)P(=O)(O)O [risedronate]
false

Item: CCCCc1nc(Cl)c(CO)n1Cc1ccc(-c2ccccc2-c2nnn[nH]2)cc1
false

Quick one: NS(=O)(=O)c1cc2c(cc1C(F)(F)F)NC(Cc1ccccc1)NS2(=O)=O (configuration not stated) [bendroflumethiazide]
false
